Molecular target: human recombinant PTP1B (Homo sapiens, UniProt P18031)
Construct: purchased Biomol International, LLP (Plymouth Meeting, PA, USA)
Sequence (P18031 whole entry): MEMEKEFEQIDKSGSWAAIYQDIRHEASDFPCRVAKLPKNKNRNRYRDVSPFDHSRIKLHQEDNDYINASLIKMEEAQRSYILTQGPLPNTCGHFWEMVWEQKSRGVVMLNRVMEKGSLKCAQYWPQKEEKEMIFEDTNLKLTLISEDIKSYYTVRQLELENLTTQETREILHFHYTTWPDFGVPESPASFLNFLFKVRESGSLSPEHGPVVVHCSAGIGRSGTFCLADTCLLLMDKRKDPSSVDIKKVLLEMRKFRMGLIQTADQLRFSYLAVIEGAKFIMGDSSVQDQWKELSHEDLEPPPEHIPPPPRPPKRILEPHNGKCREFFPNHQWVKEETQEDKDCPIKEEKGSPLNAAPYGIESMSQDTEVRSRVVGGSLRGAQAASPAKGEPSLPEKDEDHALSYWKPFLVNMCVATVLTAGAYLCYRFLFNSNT
Assay: In vitro PTP1B inhibitory activity assay (p-NPP substrate)
Format: biochemical
Settings: mean ± SD of triplicates
attribute-measured: IC50

INPUT: What value of IC50 has been reported for the following compound? O=c1cc(-c2ccc(O)c(O)c2)oc2cc(O[C@@H]3O[C@H](CO)[C@@H](O)[C@H](O)[C@H]3O)cc(O)c12 [Luteolin 7-O-β-D-glucopyranoside, luteolin 7-O-β-D-glucopyranoside]
OUTPUT: > 400 µM

Continuing:
INPUT: What value of IC50 has been reported for the following compound? `O=c1cc(-c2ccc(O)c(O)c2)oc2cc(O)cc(O)c12`
OUTPUT: > 400 µM

INPUT: What value of IC50 has been reported for the following compound? O=c1cc(-c2ccc(O)c(O)c2)oc2cc(O)cc(O[C@@H]3O[C@H](CO)[C@@H](O)[C@H](O)[C@H]3O)c12 [Luteolin 5-O-β-D-glucopyranoside, luteolin 5-O-β-D-glucopyranoside]
OUTPUT: > 400 µM

---

Target: yeast α-glucosidase
Test: In vitro α-glucosidase inhibitory activity assay (p-NPG substrate)
Settings: mean ± SD of triplicates
attribute-measured: IC50 (µM)
Your answer is read as µM, so omit the unit and give the number.

Guide cases for IC50, answers given:
INPUT: // map `O=c1cc(-c2ccc(O)c(O)c2)oc2cc(O)cc(O)c12` to recorded IC50 (system: yeast α-glucosidase)
OUTPUT: 51.3

INPUT: // map O=c1cc(-c2ccc(O)c(O)c2)oc2cc(O)cc(O[C@@H]3O[C@H](CO)[C@@H](O)[C@H](O)[C@H]3O)c12 [Luteolin 5-O-β-D-glucopyranoside, luteolin 5-O-β-D-glucopyranoside] to recorded IC50 (system: yeast α-glucosidase)
OUTPUT: 270

We now examine a further compound.
INPUT: // map O=c1cc(-c2ccc(O)c(O)c2)oc2cc(O[C@@H]3O[C@H](CO)[C@@H](O)[C@H](O)[C@H]3O)cc(O)c12 [Luteolin 7-O-β-D-glucopyranoside, luteolin 7-O-β-D-glucopyranoside] to recorded IC50 (system: yeast α-glucosidase)
OUTPUT: 249

---

Biological target: yeast α-glucosidase
Assay: In vitro α-glucosidase inhibitory activity assay (p-NPG substrate)
Format: biochemical
Conditions: Dixon plot
Experimental: The inhibitory activity against yeast α-glucosidase enzyme was carried out spectrophotometrically in a 96-well micro-plate reader (Molecular Devices, Sunnyvale, CA, USA), using a procedure reported by Li et al. with slight modifications. […] After 15 min of incubation, the reaction was ceased using 80 µL of stop solution (0.2 M sodium carbonate) and absorbance was measured at 405 nm. […]
attribute-measured: Ki (µM)
Your answer is read as µM, so omit the unit and give the number.

Guide cases for Ki, answers given:
INPUT: What value of Ki has been reported for the following compound? O=c1cc(-c2ccc(O)c(O)c2)oc2cc(O)cc(O[C@@H]3O[C@H](CO)[C@@H](O)[C@H](O)[C@H]3O)c12 [Luteolin 5-O-β-D-glucopyranoside, luteolin 5-O-β-D-glucopyranoside]
OUTPUT: 272

INPUT: What value of Ki has been reported for the following compound? O=c1cc(-c2ccc(O)c(O)c2)oc2cc(O[C@@H]3O[C@H](CO)[C@@H](O)[C@H](O)[C@H]3O)cc(O)c12 [Luteolin 7-O-β-D-glucopyranoside, luteolin 7-O-β-D-glucopyranoside]
OUTPUT: 251

We now examine a further compound.
INPUT: What value of Ki has been reported for the following compound? O=c1cc(-c2ccc(O)c(O)c2)oc2cc(O)cc(O)c12 [Luteolin, luteolin]
OUTPUT: 52
